Tested on: Bacillus subtilis
Assay Summary: cleaved RNA product abundance (RNA/gDNA barcode ratio) relative to median wild-type variant (ratio to wild type); higher = more accumulation of the downstream cleavage product
Experimental Conditions: experiment (reporter, strain, medium): exp 8a: truncated aprE reporter, strain BJT201 with 2% xylose (RNase J1 expressed); cleavage site: glnRA (positions -5 to +31 mutated)
Parameter threshold = 0.5. Response is 1 when cleaved RNA product abundance meets or exceeds it, else 0.

- Monomer Sequence: "CGACATGTCCCGCTTCTTTCATTAATCCGTTATCAACTGTTTTGCTAAATACATTTACCTTTTAAGAGGAGGAAT"
  Label: 0
- Monomer Sequence: "CGACATGTCCCGCTTCTTTCATTAATCCGTTAGCTACTGTTTTGCTATATACATTTACGTTTTAAGAGGAGGAAT"
  Label: 1
- Monomer Sequence: "CGACATGTCCCGCTTCTTTCATTAATCCGTTAGCAACTGTGTTGTTATATACATTTACCTTTTAAGAGGAGGAAT"
  Label: 1
- Monomer Sequence: "CGACATGTCCCGCTTCTTTCATTAATCCGTTAGCAACTCTTTTGCTATAAACATTTACCTTTTAAGAGGAGGAAT"
  Label: 1
- Monomer Sequence: "CGACATGTCCCGCTTCTTTCATTATTTCGTTAGCAACTGTTTTGCTATATACATTTACCTTTTAAGAGGAGGAAT"
  Label: 1
- Monomer Sequence: "CGACATGTCCCGCTTCTTTCATTAATCCGTTAGCAACCCTTTTGCTATATACATTTACCTTTTAAGAGGAGGAAT"
  Label: 0
- Monomer Sequence: "CGACATGTCCCGCTTCTTTCATTAATCCGTTAGCAACTATTTTGCTTTATACATTTACCTTTTAAGAGGAGGAAT"
  Label: 0
